- Test system: Human immunodeficiency virus 1
- Test Summary: Antiviral activity against HIV1 infected in human TZM-bl cells assessed as inhibition of viral replication at 62.5 uM treated 2 hrs before viral infection measured after 2 days by MAGI assay
- Format: functional
- Test Parameters: Human immunodeficiency virus 1, TZM-bl
Property: inhibition at 62.5 µM (%)

INSERT INTO assay_data (substance, property, unit_abbrev, result_value) VALUES
  ('H-WQSLTLTHRG-OH', 'inhibition at 62.5 µM', '%', 60),
  ('H-WQCLTLTHRG-OH', 'inhibition at 62.5 µM', '%', 68),
  ('H-WQCLTLTHRGFVLLTITVLR-OH', 'inhibition at 62.5 µM', '%', 70),
  ('H-WFVLLTITVLR-OH [WFVLLTITVLR]', 'inhibition at 62.5 µM', '%', 29);
